- assay-summary: growth inhibitors of H69AR lung tumor, primary screen, human, duplicate replicates (AID 580);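 note: 100% = mean luminescence of untreated wells and 0% = no signal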
- condition-label: H69AR lung tumor cells viability, ATP luminescence, 72 h; at 10 µM
Active and inactive are the calls of the source.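 Rule for the calls: active = viability at or under a set limit in both replicates, limit being median viability minus 3 SD (cut at about 48% in these data, passing the limit was not always enough); inconclusive = at or under the limit in just one replicate; inactive = at or above the limit in both replicates.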
Classes used: 1.0 for active, 0.0 for inactive

In [3]: df
Out[3]:
                                    molecule  class_assignment
 0  CCOc1cc(-c2nc3ccccn3c2NCC2CCCO2)ccc1O (centres undefined)               1.0
 1  CCC1(c2ccc(F)cc2)NC(=O)N(CC(=O)c2ccc[nH]2)C1=O (centres undefined)               0.0
 2       Clc1ccccc1OCc1nn2c(-c3ccncc3)nnc2s1               0.0
 3  CCN(CC)S(=O)(=O)c1ccc2oc(SCc3ccc(F)cc3)nc2c1               0.0
 4     O=C(N1CCCCCC1)N1CCN(C(=O)N2CCOCC2)CC1               0.0
 5  COCCN(CC(=O)NC1CCCCC1)C(=O)CSc1nc2ccccc2o1               0.0
 6      CCNC(=O)c1ccc(NS(=O)(=O)c2ccccc2)cc1               0.0
 7     CCOc1ccc2c(c1)sc1nc(C(=O)OC)cc(=O)n12               0.0
 8               CCNC(=O)N(C)c1nncnc1C(=O)NC               0.0
 9        CN=C(Nc1cc(C)nn1-c1ccccc1)c1ccccc1               0.0
10           Cc1nc2ccccn2c1C(=O)NCCCN1CCOCC1               0.0
11  CC(C)C(=O)Nc1nnc(CCc2nnc(NC(=O)C(C)C)s2)s1               0.0
12  Cc1cc(C(=O)COC(=O)C2COc3ccccc3O2)c(C)n1CC1CCCO1 (centres undefined)               0.0
13       Cn1cnnc1SCC(=O)Nc1sc2c(c1C#N)CCCCC2               0.0
14       N#Cc1cc2sc3nnc(-c4ccncc4)n3c2cc1C#N               1.0
15  CCC(=O)Nc1c(C#N)c2nc3ccccc3nc2n1-c1ccccc1C               0.0
16  CCC1=C(C(=O)OC)C(c2cc(OC)ccc2OC)C(C#N)=C(N)O1 (centres undefined)               0.0
17  O=C(c1cc2ccccc2oc1=O)N1CCSC1c1ccco1 (centres undefined)               0.0
18  COc1ccc(CCNC(=O)C2CCN(S(=O)(=O)c3cc(OC)ccc3OC)CC2)cc1               0.0
19  CCCCC(c1nnnn1CS(=O)(=O)c1ccc(C)cc1)N1CCN(c2ccccc2)CC1 (centres undefined)               0.0
20               Cc1ccc(CCNC(=O)Cn2cccc2)cc1               0.0
21  CCOC(=O)N1CCN(S(=O)(=O)c2ccc(OCC)c(C)c2)CC1               0.0
22  CCOc1ccc(C(c2nnnn2Cc2ccccc2)N2CCN(C(=O)c3ccco3)CC2)cc1 (centres undefined)               0.0
23     CN(C)c1ccc(CNC2CC(C)(C)NC(C)(C)C2)cc1               0.0

---

In this section we review reported Her2 level values for a set of compounds.
- tested-target: Receptor tyrosine-protein kinase erbB-2 (Homo sapiens)
- assay-summary: reducers of endogenous Her2 protein level, primary screen, SKBR3 breast tumor cells, AlphaScreen, ATP viability (AID 461);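 note: lower value means less Her2 protein in the cells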
- condition-label: 18-24 h, at 10 µM, active compounds read low
The source made the active and inactive calls.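 Rule for the calls: active = Her2 level under about 52% in both replicate screens, with viability over 70% of control (limit read from the data); inconclusive = Her2 under the limit in one screen only, or viability under 70%; inactive = Her2 level above the set limit.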
measured-metric: Her2 level

In [3]: df
Out[3]:
                                    compound          observed
 0  CN(c1ccccc1)C(c1ccc(F)cc1)c1nnnn1CC1CCCO1 (stereo not given)    98% (inactive)
 1  NC(=O)C1(N2CCCCC2)CCN(C2CC(=O)N(Cc3cccs3)C2=O)CC1 (stereo not given)   103% (inactive)
 2  COc1ccccc1NC(=O)C1=C(C)Nc2ncnn2C1c1ccc(C)o1 (stereo not given)    99% (inactive)
 3  Cc1ccc(-n2c(Cn3cnc4ccccc43)nnc2SCC(=O)O)cc1   108% (inactive)
 4  CCOC(=O)N1CCC2(CC1)CC(=O)c1c(ccc3oc(C(=O)O)c(C)c13)O2    96% (inactive)
 5      O=C(Nc1ccc(OC(=O)c2ccco2)cc1)c1ccco1  99.5% (inactive)
 6  COc1ccc(OC)c(C2=Nn3c(nnc3C3CCCCC3)SC2)c1   104% (inactive)
 7                       CCn1nnnc1NCc1cccn1C    83% (inactive)
 8                 O=C(O)CCc1ccc(-c2cccs2)o1    86% (inactive)
 9          Cc1cc(C)n(CCc2nc(-c3cccs3)cs2)n1    88% (inactive)
10  COC(=O)CC1C(=O)NCCN1C(=O)NC1CCCCC1 (stereo not given)   114% (inactive)
11  CCOC(=O)C1CCN(C(c2cc3cc(C)cc(C)c3[nH]c2=O)c2nnnn2C2CCCCC2)CC1 (stereo not given)    80% (inactive)
12  O=C(CSc1n[nH]c(-c2cccs2)n1)N1CCN(S(=O)(=O)c2ccccc2)CC1  78.5% (inactive)
13  O=C(Cc1c(O)c2ccccc2[nH]c1=O)NCc1ccc(F)cc1  87.5% (inactive)
14  COCCN(CCOC)S(=O)(=O)c1ccc(C(=O)Nc2nnc(C3CC3)o2)cc1    86% (inactive)
15  COc1cc(C2c3c(n[nH]c3C)C(=O)N2c2ccc(Br)cc2)ccc1O (stereo not given)  62.5% (inactive)
16  COc1ccc(S(=O)(=O)N2CCN(CC(=O)Nc3ccc(C)c(F)c3)CC2)cc1  93.5% (inactive)
17  CN1CCCC(OC(=O)COc2ccc(Br)cc2)C1 (stereo not given)   108% (inactive)
18    O=C(COc1ncnc2ccccc12)NCc1ccc2c(c1)OCO2    96% (inactive)
19                  C=CCNC(=O)CSc1ccc(Cl)cc1   106% (inactive)
20   CCOc1ccc(C(C)=O)cc1COc1ccc(-n2cnnn2)cc1   108% (inactive)
21             CC(C)(C)C(=O)/C=C(\N)c1ccccn1  94.5% (inactive)
22  COc1ccc(CCNC(=O)C2CCN(C(=O)N(C)C)CC2)cc1OC   117% (inactive)
23  CCN(CC)C(=O)CSc1nnc([C@@H](N)Cc2ccccc2)o1   106% (inactive)
24  CCOc1cc(S(=O)(=O)N2CCC(Cc3ccccc3)CC2)c(OCC)cc1-n1cnnn1   102% (inactive)
25  O=S(=O)(c1ccccc1)c1nc(-c2ccco2)oc1NCCCN1CCOCC1   100% (inactive)
26  O=C(O)C1CC=CCC1C(=O)Nc1ccc(S(=O)(=O)N2CCCc3ccccc32)cc1 (stereo not given)    88% (inactive)
27  COc1ccc(N2CCN(C(=O)COc3ccc4ccccc4c3)CC2)cc1  86.5% (inactive)
28  CCOC(=O)c1ccc(-c2c(C(=O)OCC)oc3cc(O)c(CC)cc3c2=O)o1  88.5% (inactive)
29  CSCSC1=C(C#N)C(c2ccc(Cl)cc2)C(C(C)=O)=C(C)N1 (stereo not given)  94.5% (inactive)
30                 CCN(CC)c1ncc(C)c(=O)[nH]1   106% (inactive)
31  CSc1ccc(-c2nc(CSCC(=O)N3CCOCC3)c(C)o2)cc1    91% (inactive)
32  COC(=O)c1ccc(-c2sc3nc(N4CCOCC4)c4c(c3c2N)CCCC4)o1   104% (inactive)
33         Cc1csc(NC(=O)CCCSc2nc3ccccc3s2)n1    71% (inactive)
34  CC(NC(=O)COc1ccccc1)C(=O)NC1=NCCS1 (stereo not given)   124% (inactive)
35      Cc1nc(SCC(=O)N2CCC(C(N)=O)CC2)n[nH]1   108% (inactive)
36  CC(C)(C)C(=O)Oc1cc(N)n(S(=O)(=O)c2ccccc2)n1   101% (inactive)
37  CCOC(=O)C1=C(C)OC(N)=C(C#N)C1c1ccoc1 (stereo not given)   107% (inactive)
38  Cc1ccc2c(c1)NC(=O)C(CC(=O)NCCN(CC(C)C)CC(C)C)O2 (stereo not given)    93% (inactive)
39  Cn1c(SCC(N)=O)nnc1C1CCN(C(=O)NCc2ccccc2)CC1   103% (inactive)
40  Cn1c(=O)oc2cc(S(=O)(=O)NCCC(=O)N3CCc4ccccc4C3)ccc21  87.5% (inactive)
41  Cc1c(NC(=O)CSc2nnc3sc4ccccc4n23)c(=O)n(-c2ccccc2)n1C  92.5% (inactive)
42  C=CCN1C(=O)C2(C(C#N)=C(N)Oc3n[nH]c(CCC)c32)c2ccccc21 (stereo not given)   103% (inactive)
43  Cc1nn(-c2ccc(Cl)cc2)c2sc(C(=O)N3CCN(c4ccccn4)CC3)cc12    80% (inactive)
44  CCc1nnc2sc(-c3cc(-c4ccccc4)nc4ccccc34)nn12    65% (inactive)
